- ASSAY_METHOD_TEXT: fluorescence interference in NS3h assay format, artefact control for HCV NS3 helicase inhibitor project, biochemical, NIH Clinical Collection (AID 743272);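 note: HCV NS3 helicase with a Cy5 labelled single stranded DNA probe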
- APPLIED_CONDITIONS: fluorescence interference counterscreen, stronger effect = lower value
ENDPOINT_NAME: fluorescence ratio

COMPOUND	NUMERIC_READOUT
CO[C@H]1/C=C/O[C@@]2(C)Oc3c(C)c(O)c4c(O)c(c(C=NN5CCN(C)CC5)c(O)c4c3C2=O)NC(=O)/C(C)=C\C=C\[C@H](C)[C@H](O)[C@@H](C)[C@@H](O)[C@@H](C)[C@H](OC(C)=O)[C@@H]1C	0.87
CC(C)CC(NC(=O)C(COC(C)(C)C)NC(=O)C(Cc1ccc(O)cc1)NC(=O)C(CO)NC(=O)C(Cc1c[nH]c2ccccc12)NC(=O)C(Cc1cnc[nH]1)NC(=O)C1CCC(=O)N1)C(=O)N[C@@H](CCCN=C(N)N)C(=O)N1CCCC1C(=O)NNC(N)=O (stereo not given in full)	0.87
CC[C@H]1OC(=O)[C@H](C)[C@@H](O[C@H]2C[C@@](C)(OC)[C@@H](O)[C@H](C)O2)[C@H](C)[C@@H](O[C@@H]2O[C@H](C)C[C@H](N(C)C)[C@H]2O)[C@](C)(O)C[C@@H](C)CN(C)[C@H](C)[C@@H](O)[C@]1(C)O	1.02
CC(=O)NC[C@H]1CN(c2ccc(N3CCOCC3)c(F)c2)C(=O)O1	1.04
CNCC[C@@H](Oc1ccccc1C)c1ccccc1	0.98

----------
- ASSAY_METHOD_TEXT: sensitizers of A549 cells to miR-34 induction, primary screen, imaging, A549 dox-inducible miR-34, nuclei and caspase counts (AID 1347080); note: test concentration not given here
- APPLIED_CONDITIONS: A549 miR-34 inducible, Hoechst nuclei count, 48 h; measured here: total cells with miR-34 induction; stronger effect = lower value
Bridge positions count the residues as written; N and C are the ends. Square brackets hold non-standard residues; d marks the D form. Peptide text beside a SMILES is read from it. * marks the point of attachment. Heptanoyl(6-Me) = CC(C)CCCCC(=O)*; Dab = NCC[CH](N)C(=O)O
Please assign NOT MET whenever cell count is at or above 10000, and MET whenever it is below.

MOLECULE	CATEGORY
CNC[C@@H](O)c1ccc(O)c(O)c1	NOT MET
CCC(C)C1NC(=O)C(CCN)NC(=O)C(NC(=O)C(CCN)NC(=O)C(NC(=O)C(CCN)NC(=O)CCCCC(C)C)C(C)O)CCNC(=O)C(C(C)O)NC(=O)C(CCN)NC(=O)C(CCN)NC(=O)C(C(C)CC)NC1=O (centres undefined) ({Heptanoyl(6-Me)}-[Dab]T[Dab][Dab][Dab]II[Dab][Dab]T; lactam 4-C; configuration not given here)	NOT MET
CC(=O)OCC(=O)[C@@]1(OC(C)=O)[C@@H](C)CC2C3C[C@H](F)C4=CC(=O)C=C[C@]4(C)[C@@]3(F)[C@@H](O)C[C@@]21C (some centres undefined)	MET
NCC[C@@H](O)C(=O)N[C@@H]1C[C@H](N)[C@@H](O[C@H]2O[C@H](CN)[C@@H](O)[C@H](O)[C@H]2O)[C@H](O)[C@H]1O[C@H]1O[C@H](CO)[C@@H](O)[C@H](N)C1O (some centres undefined)	NOT MET
CN/C(=C\[N+](=O)[O-])NCCSCc1csc(CN(C)C)n1	NOT MET
NCC1CCCCC1CC(=O)O (centres undefined)	NOT MET
C[C@H]1CC2C([C@@H](O)C[C@@]3(C)C2CC[C@]3(O)C(=O)COC(=O)CCC(=O)O)[C@@]2(C)C=CC(=O)C=C12 (some centres undefined)	MET
COc1cccc2c1C(=O)c1c(O)c3c(c(O)c1C2=O)C[C@@](O)(C(=O)CO)C[C@@H]3OC1C[C@H](N)[C@H](O)[C@H](C)O1 (some centres undefined)	MET
Cc1c(C)c2c(c(C)c1O)CCC(C)(CCCC(C)CCCC(C)CCCC(C)C)O2 (centres undefined)	NOT MET
C=C[C@@]1(C)CC(=O)[C@@]2(O)[C@](C)(O1)[C@@H](OC(C)=O)[C@@H](O)C1C(C)(C)CC[C@H](O)[C@@]12C (some centres undefined)	NOT MET
Cc1nccnc1N1CCCCC1	MET
CCOC(=O)CCC(=O)OC1C(OC2C(C)C(OC3CC(C)(OC)C(O)C(C)O3)C(C)C(=O)OC(CC)C(C)(O)C(O)C(C)C(=O)C(C)CC2(C)O)OC(C)CC1N(C)C (centres undefined)	NOT MET
CCC(C)C(=O)O[C@H]1C[C@H](O)C=C2C=C[C@H](C)[C@H](CC[C@@H](O)C[C@@H](O)CC(=O)O)C21 (some centres undefined)	NOT MET
CC(C)OC(=O)CCC/C=C\C[C@@H]1[C@@H](/C=C/C(O)COc2cccc(C(F)(F)F)c2)[C@H](O)C[C@@H]1O (some centres undefined)	MET
